assay: yeast display, Sf9 membrane polyspecificity reagent, FACS + sequencing; frameworks hold sequencing errors
reported.endpoint: polyreactivity (PSR sort gate)

# example entries with known answers
• QVQLVESGGGLVQAGGSLRLSCAASGSTFSYYGMGWYRQAPGKERELVAAIDYSGDSTYYADSVKGRFTISRDNAKNTVYLQMNSMKPEDTALYYCNAAHSVRHYAIHLGYWGQGTQVTVSS = low polyreactivity
• QVQLVESGGGLVQAGGSLRLSCAASGSIFPFYAMGWYRQAPGKERELVAAISYSGGRTYYADSVKGRFTISRDNAKNTVYLQMNSLKPEDTAVYYCAVDSGQKRRDYWGQGTQVTVSS = high polyreactivity
• QVQLVESGGGLVQAGGSLRLSCAASGSIFGRNTMGWYRQAPGKERELVAAISRSGGSTYYADSVKGRFTISRDNAKNTVYLQMNSLKPEDSAVYYCAARGKYDYSGVSFNYWGQGTQVTVSS = high polyreactivity
• QVQLVESGGGLVQAGGSLRLSCAASGLIIGYNAMGLYRQAPGKERELVAAISRSGTHTYYADSVKGRFTISRDNAKNTFNLQMNSLIPEDTAVYYCNATNRRWHRPYSTYWYYYWGQGTQVTVSS = high polyreactivity
• QVQLVDSGGGLVQAGGSLRLSCAASGLIIWRNAMGWYRQAPGKERELVAAITYSGSRTYYADSVKGRFTISRDNAKNTVYLLMNSLKPEDTAVYYCNADYYWYPYEDDNWGQGTQVTVSS = low polyreactivity
• QVPLVESGVGLVQAGGSLRISCAASGFTFSRYAMGWYRQAPGKERELVAAISRTGGRTYYADSVKGRFTITRDNAKNTVYLQMNSLKPEDTADYYCARVPVHSHLRQTYAMEYWGQGTQVTVSS = high polyreactivity
• QVQLEESGGGLVQAGGSLRLSCAASGRIFGGYAMGWYRQAPGKERELVAAITSSGSTNYADSVKGRFTISRDNAKNTVYLQMNSLKPEDTAVYYCATDFKTVYYWWGMDYWGQGTQVTVSS = low polyreactivity
• QVQLVESGGGLVQAGGSLRLSCAASGIIFRKYAMGWYRQAPGKERELVAAISFSGGTTYYADSVKGRFTISRDNAKNTVYLQMNSLKPEDTAVYYCAADPVAYVIDDYYWGQGTQVTVSS = high polyreactivity
• QVQLVESGGGLVQAGGSLRLSCAASGITFYVYTMGWYRQAPGKERELVAAINGSGGSTNYADSVKGRFPISRDNAKNTVYLQMNSLKPDDTAVYYCAADWSLSLYDYWGQGTQVSVSS = low polyreactivity
• QVQLVESGGGLVQAGGSLRLSCAASGSTFPYYAMGWYRQAPGKERELVAAITSGGSTNYADSVKGRFTISRDNAKNTVYLQMNSLKPEDTAVYYCAADFALPNALPEYDYGAFDYNYWGQGTQVTVSS = low polyreactivity

Now consider the entry below.
GET /value?item= QVQLVESGGGLVQAGCSLRLSCAASGRTFTLNAMGWYRQAPGKERELVADITYSDGDTYYADSVKGRFTISRDNAKNTVYLQMNSLIPEDTAGYYCAAGGYTDPGYEYWGQGTQVTVSS &field=polyreactivity (PSR sort gate) returns low polyreactivity
